System: NIH3T3
EXPERIMENT_SUMMARY: Cytotoxic Profiling of Annotated Libraries Using Quantitative High-Throughput Screening (AID 1296008); also: % is scaled to controls: 0 for no effect and ±100 for the full control effect; nearly all actives have a fitted effect of over 60% in size
ASSAY_CONTEXT: Five cell lines viability, CellTiter-Glo ATP luminescence, 48-72 h; hits give low values
Results filed as inconclusive are left out.
MEASUREMENT_LABEL: max response (%)
Output spec: scalar in %, unitless text.

Here are 10 molecules together with their reported answers.
MOLECULE	MEAS_VALUE
C=C1C(=O)O[C@@H]2C[C@H](C)[C@@H]3CC(=O)[C@H](O)[C@@]3(C)C[C@H]12	-22.8
CCOc1ccc(-n2c(C(C)N(Cc3cccnc3)C(=O)Cc3ccc(F)c(C(F)(F)F)c3)nc3ncccc3c2=O)cc1 (centres undefined)	2.59
CNCc1cc(-c2ccccc2F)n(S(=O)(=O)c2cccnc2)c1	0.556
Nc1nc(O)c(C2=C3C(=Nc4ccccc43)C(=O)NCC2)[nH]1	2.47
CC(C)C[C@@H]1NC(=O)[C@@H]2C[C@@]34C[C@@H]5[C@@]6(C)CCCC(C)(C)C6CC[C@@]5(C)N(c5ccccc53)[C@H]4N2C1=O (some centres undefined)	-3.44
Cc1cc(OCCCS(C)(=O)=O)cc(C)c1-c1cccc(COc2ccc(C3=CC(=O)NS3=O)cc2)c1 (centres undefined)	-0.311
C=C1C(=O)OC2C1CCC1(C)C(O)CCC(=C)C21 (centres undefined)	-19.9
CCC[C@H](N[C@H]1CCc2cc(F)cc(F)c2C1)C(=O)Nc1cn(C(C)(C)CNCC(C)(C)C)cn1	-10.9
Cn1ncnc1[C@@H]1c2n[nH]c(=O)c3cc(F)cc(c23)N[C@H]1c1ccc(F)cc1	-15
CC(=O)OC/C(=C/C(=O)O)CC[C@@H]1C(C=O)=CC[C@@H]2C(C)(C)CCC[C@@]12C	3.58

### Prompt Look up and report measured max response (NIH3T3) for the following molecule: C=CC(C)(O)CC[C@@H]1[C@@]2(C)CCCC(C)(C)C2CC[C@@]1(C)O (some centres undefined)
### Response -17

### Prompt Look up and report measured max response (NIH3T3) for the following molecule: O=C(NCCCn1ccnc1)c1cc(-c2ccco2)on1
### Response 2.29

### Prompt Look up and report measured max response (NIH3T3) for the following molecule: O=C(Nc1ccccc1)N1CCC(Cc2cnc3ccccc3c2)CC1
### Response 2.45
